Reference for the values: patent US20240415914A1

# key: entry, value: Stability in AB White, 8° C. (content by LCMSMS)
- test: Stability of cannabinoid and Vitamin E components of Beverage 1 (AB White) stored at 8° C. and 21-25° C., LCMSMS over 570 days
- Format: physicochemical
- experimental_parameters: beverage stored at 8° C., day 22
Give the number; µg/mL is assumed, so skip it.

Please review the following examples before continuing.
For the compound CCCCCc1cc(O)c2c(c1)OC(C)(CCC=C(C)C)C=C2 (stereo not drawn) , what Stability in AB White, 8° C. (content by LCMSMS) is on record?
0.315

Another: CCCCCc1cc(O)c2c(c1)OC(C)(C)c1ccc(C)cc1-2
2.76

***
For the compound CCCCCc1cc2c(c(O)c1C(=O)O)[C@@H]1C=C(C)CC[C@H]1C(C)(C)O2 [D9 THCA, delta-9-tetrahydrocannabinolic acid] , what Stability in AB White, 8° C. (content by LCMSMS) is on record?
0.960
